# TGT: ER in MCF-7 cells (Homo sapiens (Human), UniProt P03372)
# Sequence (P03372 whole entry): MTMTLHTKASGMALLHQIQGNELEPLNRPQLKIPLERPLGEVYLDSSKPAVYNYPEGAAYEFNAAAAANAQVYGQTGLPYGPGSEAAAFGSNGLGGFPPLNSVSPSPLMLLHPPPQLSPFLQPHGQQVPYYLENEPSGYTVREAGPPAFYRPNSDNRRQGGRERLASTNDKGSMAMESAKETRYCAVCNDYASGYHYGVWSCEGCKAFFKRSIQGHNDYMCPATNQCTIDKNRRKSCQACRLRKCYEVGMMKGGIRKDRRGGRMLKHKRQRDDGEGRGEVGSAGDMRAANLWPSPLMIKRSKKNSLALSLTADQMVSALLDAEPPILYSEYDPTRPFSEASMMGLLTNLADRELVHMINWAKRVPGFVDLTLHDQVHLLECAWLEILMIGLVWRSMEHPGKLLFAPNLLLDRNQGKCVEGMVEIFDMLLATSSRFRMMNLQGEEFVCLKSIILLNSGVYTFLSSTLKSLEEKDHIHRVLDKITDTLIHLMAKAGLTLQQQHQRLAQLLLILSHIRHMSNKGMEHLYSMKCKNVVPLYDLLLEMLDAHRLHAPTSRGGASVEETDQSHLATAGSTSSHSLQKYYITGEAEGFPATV
# ASSAY NAME: In-cell Western (ICW) ER degradation assay in MCF-7 cells
# Type: cell-based
# EXPERIMENTAL PARAMETERS: MCF-7, ER degradation, 16 hrs treatment; read-out: MCF7 DC50
# DC50 per entry

- COMPOUND: "COc1cc(N2CCC3(CC2)CC(CN2CCN4c5ccc6c(c5OC[C@H]4C2)CN([C@H]2CCC(=O)NC2=O)C6=O)C3)ccc1[C@@H]1c2ccc(O)cc2CC[C@@H]1c1ccccc1 (single isomer, unassigned)"
  DC50: "< 1 nM"

# input for lookup
Exam item: Quick check: DC50 of `COc1cc(N2CCC3(CC2)C[C@H](CN2CCC4(CC2)COc2cc5c(cc24)CN([C@H]2CCC(=O)NC2=O)C5=O)CO3)c(F)cc1[C@@H]1c2ccc(O)cc2CC[C@@H]1c1ccccc1` ?
Marked response: < 1 nM
